run description: Solubility assessment of Sample 1 (majorly Form 1) in 24 solvent systems
Format: physicochemical
conditions: 1,4-dioxane, 50 °C, organic solvent or mixture, thermodynamic from solid, 1,4-Dioxane; sample ID A14; read-out: Solubility assessment 40 vol.
measured property: solubility

- CCNCCc1ccc(CN(CC)c2cc(OC)ccc2[C@@H]2CCc3cc(O)ccc3C2)cc1.Cl.Cl: < 25 mg/mL

====

run description: Solubility assessment of Sample 1 (majorly Form 1) in 24 solvent systems
Assay type: physicochemical
conditions: tetrahydrofuran, organic solvent or mixture, thermodynamic from solid, Tetrahydrofuran; sample ID A17; read-out: Solubility assessment 60 vol.
measured property: solubility

• CCNCCc1ccc(CN(CC)c2cc(OC)ccc2[C@@H]2CCc3cc(O)ccc3C2)cc1.Cl.Cl = < 16.7 mg/mL

====

run description: Solubility assessment of amorphous RAD1901-2HCl in water/organic solvent system
Type: physicochemical
conditions: water-saturated ethyl acetate, organic solvent or mixture, thermodynamic from solid, Water-saturated ethyl acetate; sample ID C10; read-out: Solubility assessment 30 vol
measured property: solubility

• CCNCCc1ccc(CN(CC)c2cc(OC)ccc2[C@@H]2CCc3cc(O)ccc3C2)cc1.Cl.Cl [amorphous RAD1901-2HCl] = < 33.3 mg/mL

====

run description: Solubility assessment of Sample 1 (majorly Form 1) in 24 solvent systems
Type: physicochemical
conditions: 10% water/THF, 50 °C, organic solvent or mixture, thermodynamic from solid, 10% water/THF; sample ID A24; read-out: Solubility assessment 20 vol.
measured property: solubility

- CCNCCc1ccc(CN(CC)c2cc(OC)ccc2[C@@H]2CCc3cc(O)ccc3C2)cc1.Cl.Cl: < 50 mg/mL

====

run description: Solubility assessment of Sample 1 (majorly Form 1) in 24 solvent systems
Type: physicochemical
conditions: MIBK, organic solvent or mixture, thermodynamic from solid, MIBK; sample ID A5; read-out: Solubility assessment 60 vol.
Protocol: Solubility assessment was carried out on the Sample 1 of RAD1901-2HCl (majorly Form 1 shown by XRPD) in 24 solvent systems in HPLC vials (sample IDs: A1 to A24). […] After each addition of solvent, the system was stirred for 5 to 10 minutes at 25° C., then shaken at 50° C. for 5 to 10 minutes, and observations made. […] All solids recovered from maturation, cooling and evaporation experiments were analyzed by high resolution XRPD.
measured property: solubility

* CCNCCc1ccc(CN(CC)c2cc(OC)ccc2[C@@H]2CCc3cc(O)ccc3C2)cc1.Cl.Cl | < 16.7 mg/mL

====

run description: Solubility assessment of Sample 1 (majorly Form 1) in 24 solvent systems
Assay type: physicochemical
conditions: tetrahydrofuran, 50 °C, organic solvent or mixture, thermodynamic from solid, Tetrahydrofuran; sample ID A17; read-out: Solubility assessment 10 vol.
measured property: solubility

* CCNCCc1ccc(CN(CC)c2cc(OC)ccc2[C@@H]2CCc3cc(O)ccc3C2)cc1.Cl.Cl | < 100 mg/mL

====

run description: Solubility assessment of amorphous RAD1901-2HCl in water/organic solvent system
Format: physicochemical
conditions: MeOH/H2O (99:1), organic solvent or mixture, thermodynamic from solid, MeOH/H2O (99:1); sample ID C8; read-out: Solubility assessment 10 vol.
measured property: solubility

- CCNCCc1ccc(CN(CC)c2cc(OC)ccc2[C@@H]2CCc3cc(O)ccc3C2)cc1.Cl.Cl [amorphous RAD1901-2HCl]: < 100 mg/mL
